target: T1, human CTLA-4-Fc (Chimerigen) (human, UniProt P16410 36-161; P01857 99-330 = IgG part, limits assumed); test: SPR-Affinity of the monomer towards hCTLA-4-Fc
T1 construct: extracellular domain;domain: Fc portion; Bought protein; also called hCTLA-4-Fc; huCTLA-4-Ig
T1 sequence (P16410 other isoform, or with tags, fused parts or gaps mutant limits assumed): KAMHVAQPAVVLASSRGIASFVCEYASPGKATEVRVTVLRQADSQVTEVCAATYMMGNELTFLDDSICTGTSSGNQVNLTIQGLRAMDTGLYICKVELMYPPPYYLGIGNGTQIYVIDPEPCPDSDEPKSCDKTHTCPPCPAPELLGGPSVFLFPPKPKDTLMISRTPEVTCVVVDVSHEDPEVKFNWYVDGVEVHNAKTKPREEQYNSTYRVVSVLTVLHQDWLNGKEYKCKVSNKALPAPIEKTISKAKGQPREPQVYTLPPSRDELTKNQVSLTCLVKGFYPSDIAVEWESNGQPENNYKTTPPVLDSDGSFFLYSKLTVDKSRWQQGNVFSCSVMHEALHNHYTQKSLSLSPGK
Each entry below carries its recorded log10 of Kd.
Hello, just confirming the data are log10 of Kd with units of nM.

Solved entries:
Consider the binder hNGAL mutein S140.4-O10 without T7 tag (designed binder, also called S140.4-O10 (-T7 tag); S140.4-O10(-T7)) QDSTSDLIPAPPLSKVPLQQNFQDNQFHGKWYVVGLAGNRILRDDQHPMNMYATIYELKEDKSYNVTSVISSHKKCEYTIATFVPGSQPGEFTLGNIKSYGDKTSYLVRVVSTDYNQYAVVFFKLAEDNAEFFAITIYGRTKELASELKENFIRFSKSLGLPENHIVFPVPIDQCIDG and give its measured log10 of Kd.
0.48

For the binder shown here, S140.4-O10_V84C (designed binder, Produced from phNGAL15 without the T7 tag) QDSTSDLIPAPPLSKVPLQQNFQDNQFHGKWYVVGLAGNRILRDDQHPMNMYATIYELKEDKSYNVTSVISSHKKCEYTIATFCPGSQPGEFTLGNIKSYGDKTSYLVRVVSTDYNQYAVVFFKLAEDNAEFFAITIYGRTKELASELKENFIRFSKSLGLPENHIVFPVPIDQCIDG , give the reported log10 of Kd.
1.18

Which log10 of Kd is listed for S140.4-O10_N116 (designed binder, Produced from phNGAL15 without the T7 tag; also called O10_N116C) QDSTSDLIPAPPLSKVPLQQNFQDNQFHGKWYVVGLAGNRILRDDQHPMNMYATIYELKEDKSYNVTSVISSHKKCEYTIATFVPGSQPGEFTLGNIKSYGDKTSYLVRVVSTDYCQYAVVFFKLAEDNAEFFAITIYGRTKELASELKENFIRFSKSLGLPENHIVFPVPIDQCIDG ?
1.00

For the binder S140.4-O10_S14C (designed binder, Produced from phNGAL15 without the T7 tag) QDSTSDLIPAPPLCKVPLQQNFQDNQFHGKWYVVGLAGNRILRDDQHPMNMYATIYELKEDKSYNVTSVISSHKKCEYTIATFVPGSQPGEFTLGNIKSYGDKTSYLVRVVSTDYNQYAVVFFKLAEDNAEFFAITIYGRTKELASELKENFIRFSKSLGLPENHIVFPVPIDQCIDG , what log10 of Kd is on record?
1.11

Returns the measured log10 of Kd for the input binder. Input: S140.4-O10_S158C (designed binder, Produced from phNGAL15 without the T7 tag) QDSTSDLIPAPPLSKVPLQQNFQDNQFHGKWYVVGLAGNRILRDDQHPMNMYATIYELKEDKSYNVTSVISSHKKCEYTIATFVPGSQPGEFTLGNIKSYGDKTSYLVRVVSTDYNQYAVVFFKLAEDNAEFFAITIYGRTKELASELKENFIRFSKCLGLPENHIVFPVPIDQCIDG
1.11

Value lookup for log10 of Kd; key = S140.4-O10_S146C (designed binder, Produced from phNGAL15 without the T7 tag) QDSTSDLIPAPPLSKVPLQQNFQDNQFHGKWYVVGLAGNRILRDDQHPMNMYATIYELKEDKSYNVTSVISSHKKCEYTIATFVPGSQPGEFTLGNIKSYGDKTSYLVRVVSTDYNQYAVVFFKLAEDNAEFFAITIYGRTKELACELKENFIRFSKSLGLPENHIVFPVPIDQCIDG
0.95

What measured log10 of Kd goes with S140.4-O10_E143C (designed binder, Produced from phNGAL15 without the T7 tag) QDSTSDLIPAPPLSKVPLQQNFQDNQFHGKWYVVGLAGNRILRDDQHPMNMYATIYELKEDKSYNVTSVISSHKKCEYTIATFVPGSQPGEFTLGNIKSYGDKTSYLVRVVSTDYNQYAVVFFKLAEDNAEFFAITIYGRTKCLASELKENFIRFSKSLGLPENHIVFPVPIDQCIDG ?
1.18

If you can, please state the reported log10 of Kd value of S140.4-O10_N21C (designed binder, Produced from phNGAL15 without the T7 tag) QDSTSDLIPAPPLSKVPLQQCFQDNQFHGKWYVVGLAGNRILRDDQHPMNMYATIYELKEDKSYNVTSVISSHKKCEYTIATFVPGSQPGEFTLGNIKSYGDKTSYLVRVVSTDYNQYAVVFFKLAEDNAEFFAITIYGRTKELASELKENFIRFSKSLGLPENHIVFPVPIDQCIDG .
1.51

---
What does the data say about its log10 of Kd? Entry: S140.4-O10_A145C (designed binder, Produced from phNGAL15 without the T7 tag) QDSTSDLIPAPPLSKVPLQQNFQDNQFHGKWYVVGLAGNRILRDDQHPMNMYATIYELKEDKSYNVTSVISSHKKCEYTIATFVPGSQPGEFTLGNIKSYGDKTSYLVRVVSTDYNQYAVVFFKLAEDNAEFFAITIYGRTKELCSELKENFIRFSKSLGLPENHIVFPVPIDQCIDG
0.78

What does the record list as log10 of Kd for S140.4-O10_T141C (designed binder, Produced from phNGAL15 without the T7 tag) QDSTSDLIPAPPLSKVPLQQNFQDNQFHGKWYVVGLAGNRILRDDQHPMNMYATIYELKEDKSYNVTSVISSHKKCEYTIATFVPGSQPGEFTLGNIKSYGDKTSYLVRVVSTDYNQYAVVFFKLAEDNAEFFAITIYGRCKELASELKENFIRFSKSLGLPENHIVFPVPIDQCIDG ?
0.60

Need log10 of Kd of S140.4-O10_Q88C (designed binder, Produced from phNGAL15 without the T7 tag) QDSTSDLIPAPPLSKVPLQQNFQDNQFHGKWYVVGLAGNRILRDDQHPMNMYATIYELKEDKSYNVTSVISSHKKCEYTIATFVPGSCPGEFTLGNIKSYGDKTSYLVRVVSTDYNQYAVVFFKLAEDNAEFFAITIYGRTKELASELKENFIRFSKSLGLPENHIVFPVPIDQCIDG , thanks.
1.18

Fill in: log10 of Kd of S140.4-O10_E60C (designed binder, Produced from phNGAL15 without the T7 tag) QDSTSDLIPAPPLSKVPLQQNFQDNQFHGKWYVVGLAGNRILRDDQHPMNMYATIYELKCDKSYNVTSVISSHKKCEYTIATFVPGSQPGEFTLGNIKSYGDKTSYLVRVVSTDYNQYAVVFFKLAEDNAEFFAITIYGRTKELASELKENFIRFSKSLGLPENHIVFPVPIDQCIDG is ___
1.38

Query: log10 of Kd; subject: S140.4-O10 with a free cystein residue at position 87 (designed binder, Not PEGylated; also called O10_S87C; S87C variant) QDSTSDLIPAPPLSKVPLQQNFQDNQFHGKWYVVGLAGNRILRDDQHPMNMYATIYELKEDKSYNVTSVISSHKKCEYTIATFVPGCQPGEFTLGNIKSYGDKTSYLVRVVSTDYNQYAVVFFKLAEDNAEFFAITIYGRTKELASELKENFIRFSKSLGLPENHIVFPVPIDQCIDGSAWSHPQFEK
0.78
